Experiment: Elimination half life in mouse
Type: ADME, organism-based
Conditions: in vivo, read-out: beta t1/2 (converted)

{"Smiles Record": "CC1(C)CCC(NC(=O)c2cc3c(Cl)cc(Cl)cc3[nH]2)CC1", "Unit String": "h", "half-life": 5.1}

====

Assay: Systemic clearance in mouse
Assay type: ADME, organism-based
Details: in vivo

{"Smiles Record": "CC1(C)CCC(NC(=O)c2cc3c(Cl)cc(Cl)cc3[nH]2)CC1", "clearance [mL/min/kg]": 18.1}
